Source: PubChem BioAssay AID1963843

So I've got a bunch of compounds here, and I need their viability, T/C values.
Test system: 616215-338-R-J1-PDC complex spheroid viability;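 note: spheroids exposed to compounds for one week before readout; percent viability relative to DMSO vehicle wells taken as 100%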
assay-text: Anticancer human tumor 616215-338-R-J1-PDC patient-derived colon adenocarcinoma cell line growth inhibition [POLQ]
test-settings: second compound 3.16 µM; first compound 1 µM; hits give low values
Give bare numbers, in %.

Lab note: each compound below needs its viability, T/C filled in.
1. CC1COCCN1c1cc(C2(S(C)(=N)=O)CC2)nc(-c2ccnc3[nH]ccc23)n1 (stereo unspecified) + COC1C(OC(N)=O)C(O)C(Oc2ccc3c(O)c(NC(=O)c4ccc(O)c(CC=C(C)C)c4)c(=O)oc3c2C)OC1(C)C
2. COc1cc(C2c3cc4c(cc3C(OC3OC5COC(C)OC5C(O)C3O)C3COC(=O)C23)OCO4)cc(OC)c1O (stereo unspecified) + Nc1ccc(C#CCN(C(=O)Cc2ncc(C(F)(F)F)cc2C(F)(F)F)c2ccc(F)cc2)nn1
3. COc1cccc(OCCCN)c1-c1cc(Nc2cnc(C#N)cn2)n[nH]1 + Nc1ccc(C#CCN(C(=O)Cc2ncc(C(F)(F)F)cc2C(F)(F)F)c2ccc(F)cc2)nn1
4. CNCc1ccc(-c2[nH]c3cc(F)cc4c3c2CCNC4=O)cc1 + Nc1ccc(C#CCN(C(=O)Cc2ncc(C(F)(F)F)cc2C(F)(F)F)c2ccc(F)cc2)nn1
5. CCc1c2c(nc3ccc(O)cc13)-c1cc3c(c(=O)n1C2)COC(=O)[C@]3(O)CC + Nc1ccc(C#CCN(C(=O)Cc2ncc(C(F)(F)F)cc2C(F)(F)F)c2ccc(F)cc2)nn1
6. CC(C)n1c(=O)n(C)c2cnc3cc(F)c(-c4ccc(OCCCN5CCCCC5)nc4)cc3c21 + Nc1ccc(C#CCN(C(=O)Cc2ncc(C(F)(F)F)cc2C(F)(F)F)c2ccc(F)cc2)nn1
7. O=C(c1cc(Cc2n[nH]c(=O)c3ccccc23)ccc1F)N1CCN(C(=O)C2CC2)CC1 + COC1C(OC(N)=O)C(O)C(Oc2ccc3c(O)c(NC(=O)c4ccc(O)c(CC=C(C)C)c4)c(=O)oc3c2C)OC1(C)C

[out]
1. 94
2. 37.9
3. 29.7
4. 102
5. 10.9
6. 90.6
7. 94.7

Lab note: each compound below needs its viability, T/C filled in.
1. C=CC(=O)N1CCN(c2nc(=O)n(-c3c(C)ccnc3C(C)C)c3nc(-c4c(O)cccc4F)c(F)cc23)C(C)C1 (stereo unspecified) + Cc1cccc(N(C)C(=O)C2C(O)CCN2c2nc(C)cc(C(F)(F)F)c2C#N)c1
2. C#Cc1c(F)ccc2cc(O)cc(-c3ncc4c(N5CC6CCC(C5)N6)nc(OCC56CCCN5CC(F)C6)nc4c3F)c12 (stereo unspecified) + Nc1ccc(C#CCN(C(=O)Cc2ncc(C(F)(F)F)cc2C(F)(F)F)c2ccc(F)cc2)nn1
3. C=CC(=O)N1CCN(c2nc(=O)n(-c3c(C)ccnc3C(C)C)c3nc(-c4c(O)cccc4F)c(F)cc23)C(C)C1 (stereo unspecified) + Nc1ccc(C#CCN(C(=O)Cc2ncc(C(F)(F)F)cc2C(F)(F)F)c2ccc(F)cc2)nn1
4. O=c1[nH]cc(F)c(=O)[nH]1 + Nc1ccc(C#CCN(C(=O)Cc2ncc(C(F)(F)F)cc2C(F)(F)F)c2ccc(F)cc2)nn1

[out]
[101, 68.8, 93.8, 41.6]
